assay: Solubility was determined; assay type: physicochemical
MEASUREMENT_LABEL: solubility

Query: So what's the measured solubility for this one? `CC(=O)Nc1oc(-c2cc3ccccc3cc2O)nc1-c1ccccc1`
Result: < 5 µg/mL

###

test: Pharmacokinetic property (Vdss) for the compound (5 mg/kg iv) was determined in rats; assay type: ADME, organism-based; details: rat, in vivo, read-out: Vdss
MEASUREMENT_LABEL: Vd (L/kg)
// units = L/kg; emit number, no label

1. CN1CCN(CCCn2cc(-c3cncc(-c4ccsc4)c3)c3ccccc32)CC1	1.7

Query: So what's the measured Vd for this one? `c1ccc2c(c1)c(-c1cncc(-c3ccsc3)c1)cn2CCN1CCOCC1`
Result: 7.2

Query: Another compound: `c1ccc2c(c1)c(-c1cncc(-c3ccsc3)c1)cn2CCCN1CCCCC1`
Result: 1.8

###

test: Solubility at pH 7.4 was determined; assay type: physicochemical; conditions: buffer
MEASUREMENT_LABEL: solubility

// known answers, use as guide
1. CN1CCN(CCCn2cc(-c3cncc(-c4ccsc4)c3)c3ccccc32)CC1	> 205 µg/mL
2. c1ccc2c(c1)c(-c1cncc(-c3ccsc3)c1)cn2CCN1CCOCC1	5 µg/mL

Could you now consider this next compound?
Query: So what's the measured solubility for this one? `c1ccc2c(c1)c(-c1cncc(-c3ccsc3)c1)cn2CCCN1CCCCC1`
Result: < 5 µg/mL

###

assay: Solubility at pH 5.2 was determined; type: physicochemical; conditions: buffer
Listing: solubility of selected molecules
// units = µg/mL; emit number, no label

// known answers, use as guide
1. c1ccc2c(c1)c(-c1cncc(-c3ccsc3)c1)cn2CCN1CCOCC1	24
2. CN1CCN(CCCn2cc(-c3cncc(-c4ccsc4)c3)c3ccccc32)CC1	18200

Could you now consider this next molecule?
Query: So what's the measured solubility for this one? `c1ccc2c(c1)c(-c1cncc(-c3ccsc3)c1)cn2CCCN1CCCCC1`
Result: 177

###

assay: Oral bioavailability in rat (dose 20 mg/kg p.o.); format: ADME, organism-based; conditions: in vivo
MEASUREMENT_LABEL: bioavailability (%)
// units = %; emit number, no label

Query: So what's the measured bioavailability for this one? `CN1CCN(CCCn2cc(-c3cncc(-c4ccsc4)c3)c3ccccc32)CC1`
Result: 33

Query: Another molecule: `c1ccc2c(c1)c(-c1cncc(-c3ccsc3)c1)cn2CCCN1CCCCC1`
Result: 28

Query: Another molecule: `c1ccc2c(c1)c(-c1cncc(-c3ccsc3)c1)cn2CCN1CCOCC1`
Result: 35

###

test: Partition coefficient (logP); format: physicochemical; details: octanol/water
MEASUREMENT_LABEL: logP

// known answers, use as guide
1) CC(=O)Nc1oc(-c2cc3ccccc3cc2O)nc1-c1ccccc1	> 4.1
2) c1ccc2c(c1)c(-c1cncc(-c3ccsc3)c1)cn2CCN1CCOCC1	3.3

Could you now consider this next compound?
Query: So what's the measured logP for this one? `CN1CCN(CCCn2cc(-c3cncc(-c4ccsc4)c3)c3ccccc32)CC1`
Result: 3.7
